Test system: DU-145
Assay: NCI tumour cell line growth inhibition, 48 h
Activity calls are given as the source filed them. Rule as the data show it: active = GI50 up to about 1.1 µM and inactive = higher.
Outcomes: active, inactive

[[record]]
compound = "Nc1nc(NCC2(CO)CC(CCc3ccccc3)C2)cc(=O)[nH]1 (stereo not drawn)"
classlabel = "inactive"

[[record]]
compound = "C/C(=N\\Nc1nc2ccccc2o1)c1ncccn1"
classlabel = "active"

[[record]]
compound = "Clc1nncc2sc(-c3ccccc3)nc12"
classlabel = "inactive"


---

Below is a list of entries, each paired with its recorded GI50 value.
System: Malme-3M
Assay: NCI tumour cell line growth inhibition, 48 h
Activity calls are given as the source filed them. Rule as the data show it: active = GI50 up to about 1.1 µM and inactive = higher.
valueKind: GI50

[[record]]
molecule = "CC1(C)CC[C@]2(C(=O)O)CC[C@]3(C)C(=CCC4=C5C[C@H](O)[C@H](O)[C@@](C)(CO)[C@@]5(C)CC[C@]43C)[C@@H]2C1"
result = "69.2 µM (inactive)"

[[record]]
molecule = "CC(=O)Nc1ccc(/C=C/c2ccc(NC(=O)Nc3ccc(/C=C/c4ccc(NC(C)=O)cc4S(=O)(=O)O)c(S(=O)(=O)O)c3)cc2S(=O)(=O)O)c(S(=O)(=O)O)c1"
result = "> 100 µM (inactive)"

[[record]]
molecule = "O=C(/C=C/c1ccc(O)cc1)c1ccc(O)cc1 [4,4'-DIHYDROXYCHALCONE]"
result = "27.7 µM (inactive)"


---

Test system: SK-MEL-28
Assay: NCI tumour cell line growth inhibition, 48 h
The source made the active and inactive calls. Rule as the data show it: active = GI50 up to about 1.1 µM and inactive = higher.
valueKind: GI50

[[record]]
compound = "O=C1c2ccccc2-c2nc(/C=C/c3ccccc3)cc3c2c1nc1ccccc13"
testedon = "SK-MEL-28"
result = "23.1 µM (inactive)"

[[record]]
compound = "O=C1[C@H]2ON(c3ccccc3)C(c3ccc(Cl)cc3Cl)[C@H]2C(=O)N1c1ccc(Cc2ccc(N3C(=O)[C@@H]4ON(c5ccccc5)C(c5ccc(Cl)cc5Cl)[C@@H]4C3=O)cc2)cc1 (stereo partly drawn)"
testedon = "SK-MEL-28"
result = "> 100 µM (inactive)"

[[record]]
compound = "COc1cccc(C2SCc3nc4ccccc4n32)c1 (stereo not drawn)"
testedon = "SK-MEL-28"
result = "81.3 µM (inactive)"


---

Test system: PC-3
Experiment: NCI tumour cell line growth inhibition, 48 h
Active and inactive are the calls of the source. Rule as the data show it: active = GI50 up to about 1.1 µM and inactive = higher.
Below is a list of entries, each paired with its recorded GI50 value.
valueKind: GI50

[[record]]
compound = "Oc1ccc2ccccc2c1-c1nnc(CCCCCCCCc2nnc(-c3c(O)ccc4ccccc34)o2)o1"
result = "1.98 µM (inactive)"

[[record]]
compound = "CC(C)=CC(Cc1ccccc1)S(=O)(=O)c1nc2ccccc2s1 (centres undefined)"
result = "16.7 µM (inactive)"

[[record]]
compound = "CC(=O)Nc1nnc(S(C)(=O)=O)s1"
result = "> 100 µM (inactive)"

[[record]]
compound = "CCN(CC)c1ccc2c(c1)OC(=O)C(c1nnc(-c3ccc([N+](=O)[O-])cc3)o1)C2 (centres undefined)"
result = "> 100 µM (inactive)"


---

System: Hs-578T
Test: NCI tumour cell line growth inhibition, 48 h
Activity calls are given as the source filed them. Cut-off read from the data, not from the text of the source: active = GI50 up to about 1.1 µM and inactive = higher.
Outcomes: active, inactive

[[record]]
compound = "CCOC(=O)C(=CNc1ccc(NC2=NCC(C)S2)cc1)C(=O)OCC (centres undefined)"
classlabel = "inactive"

[[record]]
compound = "Nc1ncnc2c1ncn2[C@@H]1O[C@H](C(=O)O)[C@@H](O)[C@H]1O"
classlabel = "inactive"

[[record]]
compound = "Cc1ccc(S(=O)(=O)N2CCCSCCN(S(=O)(=O)c3ccc(C)cc3)CCCSCC2)cc1"
classlabel = "inactive"

[[record]]
compound = "CN(C)CCCNC(=O)c1cc(NC(=O)c2cc(NC(=O)CCCn3c4ccccc4c4ccccc43)cn2C)cn1C"
classlabel = "inactive"

[[record]]
compound = "CC(=O)O[C@@H](C1C[C@@H](C)[C@H]2[C@@](O)(O1)[C@H](O)[C@@]1(C)C3=CC[C@H]4C(C)(C)[C@@H](OC5OCC(O)C(O)C5O)CC[C@@]45C[C@@]35CC[C@]21C)C(C)(C)O (some centres undefined)"
classlabel = "inactive"

[[record]]
compound = "Clc1ccc(-c2cc(-c3nc4ccccc4[nH]3)no2)cc1"
classlabel = "inactive"

[[record]]
compound = "COCC(=O)[C@]1(O)Cc2c(O)c3c(c(O)c2[C@@H](OC2CC(N)C(O)C(C)O2)C1)C(=O)c1c(OC)cccc1C3=O (some centres undefined)"
classlabel = "active"

[[record]]
compound = "Cc1ccc(C(=O)N/N=C(\\N=N\\c2cccc(C)c2)c2ccc(N(CCC#N)CCC#N)cc2C)cc1"
classlabel = "inactive"

[[record]]
compound = "Cc1c2cnccc2c(C)c2c1[nH]c1ccc(O)cc12"
classlabel = "inactive"

[[record]]
compound = "Cn1c(=O)c2nc(SCc3ccccn3)[nH]c2n(C)c1=S"
classlabel = "inactive"

[[record]]
compound = "CC(C)=CCC1=C(O)C(=O)c2ccccc2C1=O"
classlabel = "inactive"

[[record]]
compound = "c1ccc2c(c1)NC(C1OC3CCCN3C1C1Nc3ccccc3S1)S2 (centres undefined)"
classlabel = "inactive"

[[record]]
compound = "O=[N+]([O-])c1ccc(S(=O)(=O)Cc2ccccc2)c2nonc12"
classlabel = "inactive"

[[record]]
compound = "Nc1nc(O)c2c(n1)NCN(c1ccc(S(N)(=O)=O)cc1)C2"
classlabel = "inactive"

